Listed next: entries and their corresponding pIC50.
# MEASUREMENT TARGET: Cyp3A4 (Homo sapiens, UniProt P08684)
# Sequence (P08684 whole entry): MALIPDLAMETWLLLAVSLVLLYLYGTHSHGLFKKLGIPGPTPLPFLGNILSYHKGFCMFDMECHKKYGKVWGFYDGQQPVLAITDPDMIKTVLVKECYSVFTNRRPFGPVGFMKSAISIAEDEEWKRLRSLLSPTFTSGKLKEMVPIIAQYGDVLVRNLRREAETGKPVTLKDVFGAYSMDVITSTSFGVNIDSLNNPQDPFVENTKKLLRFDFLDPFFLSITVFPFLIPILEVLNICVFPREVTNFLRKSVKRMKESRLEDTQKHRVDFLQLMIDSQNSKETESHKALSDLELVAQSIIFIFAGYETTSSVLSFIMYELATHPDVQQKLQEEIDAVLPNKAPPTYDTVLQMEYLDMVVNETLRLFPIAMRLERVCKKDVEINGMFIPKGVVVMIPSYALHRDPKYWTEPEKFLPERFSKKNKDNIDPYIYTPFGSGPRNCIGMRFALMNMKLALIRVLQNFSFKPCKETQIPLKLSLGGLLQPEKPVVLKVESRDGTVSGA
# EXPERIMENT NOTES: Cyp time-dependent inhibition (TDI) assay (human liver microsomes)
# Type: in vitro ADME
# Set-up: The TDI assay was generally performed in liver microsomes; from tissue; host or cells: human liver microsomes
# TEST PARAMETERS: 20 min pre-incubation with NADPH; human liver microsomes; read-out: 3A4-Midazolam IC50 (+) NADPH
pIC50: −log10 of the molar value.

| MOLECULE | pIC50 |
| --- | --- |
| CCC(C)n1ncn(-c2ccc(N3CCN(c4ccc(OC[C@@H]5CO[C@@](Cn6nccn6)(c6ccccc6)O5)cc4)CC3)cc2)c1=O (stereo partly drawn) | < 4.30 |
| CCC(C)n1ncn(-c2ccc(N3CCN(c4ccc(OC[C@@H]5CO[C@@](Cc6ccnnc6)(c6ccc(Cl)cc6Cl)O5)cc4)CC3)cc2)c1=O (stereo partly drawn) | < 4.30 |

Lab note: next molecule to report on.
Qu. Need pIC50, item CCC(C)n1ncn(-c2ccc(N3CCN(c4ccc(OC[C@@H]5CO[C@@](Cn6nccn6)(c6ccc(Cl)cc6Cl)O5)cc4)CC3)cc2)c1=O (stereo partly drawn)
Ans. 4.39
